# Test system: RSV protein F (recombinant or purified F protein) (human respiratory syncytial virus, …)
# Experimental details: SPR Biacore 3000, Fab over amine-coupled recombinant protein F
Assign kon to each entry below.
Just the number please, in M⁻¹ s⁻¹, no unit attached.

Exam item: Could you share which kon value was measured for Fab fragment of antibody 735 (Fab, V domains shown, also called Fab clone 735) VH: QVQLQESGPGLVKPSETLSLTCTVSNGAIGDYDWSWIRQSPGKGLEWIGNINYRGNTNYNPSLKSRVTMSLRTSTMQFSLKLSSATAADTAVYYCARDVGYGGGQYFAMDVWSPGTTVTVSS VL: EIVLTQSPATLSLSPGERATLSCRASQSVNSHLAWYQQKPGQAPRLLIYNTFNRVTGIPARFSGSGSGTDFTLTISSLATEDFGVYYCQQRSNWPPALTFGGGTKVEIKR ?
Marked response: 407000

Exam item: Returns the measured kon for the input binder. Input: Fab fragment of antibody 858 (Fab, V domains shown, also called Fab clone 858) VH: QVQLVQSGAEVKKPGSSVKVSCKASGGSFDGYTISWLRQAPGQGLEWMGRVVPTLGFPNYAQKFQGRVTVTADRSTNTAYLELSRLTSEDTAVYYCARMNLGSHSGRPGFDMWGQGTLVTVSS VL: DIQMTQSPSSVSASVGDRVTITCQASQDISNYLNWYQQKPGKAPKLLIFDATKLETGVPTRFIGSGSGTDFTVTITSLQPEDVATYYCQHFANLPYTFGQGTKLEIKR
Marked response: 497000

Exam item: Reported kon for Fab fragment of antibody 817 (Fab, V domains shown, also called Fab clone 817) VH: QVQLVESGGGVVQPGRSLRLSCAASGFGFNTHGMHWVRQAPGKGLEWLSIISLDGIKTHYADSVKGRFTISRDNSKNTVFLQLSGLRPEDTAVYYCAKDHIGGTNAYFEWTVPFDGWGQGTLVTVSS VL: EIVMTQSPATLSASPGERATLSCWASQTIGGNLAWYQQKPGQAPRLLIYGASTRATGVPARFSGSGSGTEFTLAISSLQSEDFAVYYCQQYKNWYTFGQGTKLELKR : what is it?
Marked response: 92000
